Measured Percent Effect, listed per entry.
ASSAY_SYSTEM: Shiga toxin 2 (Escherichia coli O157:H7) (UniProt P09385+P09386)
METHOD_NOTES: E. coli 0.157:H7 Shiga Toxin SOP - stx2 screening assay
Format: functional
Design: scale not given: direction of the effect not stated beside the values
MEASUREMENT_SETUP: 30 µM
Report the figure in % without appending any unit label.

Solved cases (4 shown):
COMPOUND	ASSAY_SYSTEM	DISPLAY_UNIT	Percent Effect
Cc1ccc(N2CCC3(CC2)CC(OCC(=O)N(C)C)CO3)nn1 (configuration not stated)	Shiga toxin 2 (Escherichia coli O157:H7) (UniProt P09385+P09386)	%	-23.3
Cc1nc(C)n(CC2CCCN2Cc2nc3ccccc3n2C)n1 (configuration not stated)	Shiga toxin 2 (Escherichia coli O157:H7) (UniProt P09385+P09386)	%	5.05
O=C1CC2(CCN(Cc3ccoc3)C2)CN1c1ccc2c(c1)OCO2 (configuration not stated)	Shiga toxin 2 (Escherichia coli O157:H7) (UniProt P09385+P09386)	%	-93.1
COc1ncc(C2(O)CCN(Cc3c(F)cccc3F)CC2)c(OC)n1	Shiga toxin 2 (Escherichia coli O157:H7) (UniProt P09385+P09386)	%	71.8

GET /values?item= Cc1cccnc1CN(C)CC1(O)CCCN(CC2CCCCC2)C1=O (configuration not stated) &system= Shiga toxin 2 (Escherichia coli O157:H7) (UniProt P09385+P09386) returns Percent Effect: 2.24

Observed Percent Effect, Shiga toxin 2 (Escherichia coli O157:H7) (UniProt P09385+P09386), COc1ccccc1C(O)CNCc1c(C(C)C)nn(C)c1N(C)C (configuration not stated) : 9.26

# CN(C)S(=O)(=O)c1ccc(OCCNCCn2cccn2)cc1 with Shiga toxin 2 (Escherichia coli O157:H7) (UniProt P09385+P09386): Percent Effect is -13.8

Item Cc1cc(C)cc(-c2cccc(CC3(C(=O)O)CCOCC3)c2)c1 ; assay system Shiga toxin 2 (Escherichia coli O157:H7) (UniProt P09385+P09386); Percent Effect reported as -30

Simply: CC(C)=CCN1C(=O)[C@H]2CC[C@@H]1CN(Cc1cccnc1N)C2 , Shiga toxin 2 (Escherichia coli O157:H7) (UniProt P09385+P09386), Percent Effect = -25.3

Here N#Cc1ccc(CN2CCN(C(=O)c3cc(C4CC4)[nH]n3)CC2)cc1 was tested on Shiga toxin 2 (Escherichia coli O157:H7) (UniProt P09385+P09386), and its Percent Effect came to -17.1

Reported Percent Effect (Shiga toxin 2 (Escherichia coli O157:H7) (UniProt P09385+P09386)) for entry Cc1ccc(C(NC(=O)CC2CCN(C(C)C)CC2)C(=O)O)cc1 (configuration not stated) is 10.7

Fill in: Shiga toxin 2 (Escherichia coli O157:H7) (UniProt P09385+P09386) Percent Effect for CN1CCOC(CNCc2coc(-c3ccccc3)n2)C1 (configuration not stated) = -3.88

Note to self: Percent Effect of CS(=O)(=O)N1Cc2nccn2CC(Cn2ncccc2=O)C1 (configuration not stated) with Shiga toxin 2 (Escherichia coli O157:H7) (UniProt P09385+P09386) was -8.61

The observed Percent Effect for CC(C)c1nc(C2CCCN(C(=O)c3ccc4nccn4c3)C2)no1 (configuration not stated) when tested with Shiga toxin 2 (Escherichia coli O157:H7) (UniProt P09385+P09386) stands at 29.2

Percent Effect on Shiga toxin 2 (Escherichia coli O157:H7) (UniProt P09385+P09386) for CN1CCN(C(=O)CC2CCN(CCc3ccccn3)CC2)CC1 is 8.24

Recorded Percent Effect for Cc1ccc2c(c1)CCC21CCN(C(=O)CO)CC1 on Shiga toxin 2 (Escherichia coli O157:H7) (UniProt P09385+P09386) was -38.4

The measured Percent Effect that O=C(NC(CO)CO)c1coc(COc2cccc(F)c2)n1 showed for Shiga toxin 2 (Escherichia coli O157:H7) (UniProt P09385+P09386) is -3.72

// assay Shiga toxin 2 (Escherichia coli O157:H7) (UniProt P09385+P09386), entry Cn1cc(C[C@H]2[C@H](N3CCOCC3)CCN2C(=O)c2ccco2)cn1 , Percent Effect value = -0.123

CC(C)c1cc2c(O)nc(CSCC(=O)O)nc2s1 on Shiga toxin 2 (Escherichia coli O157:H7) (UniProt P09385+P09386) gives Percent Effect = -12.1

The observed Percent Effect for CCn1cc(CN2CCCN(C(=O)Cc3cccs3)CC2)cn1 when tested with Shiga toxin 2 (Escherichia coli O157:H7) (UniProt P09385+P09386) stands at -21.2

// returns Percent Effect for CC(C)[C@H](NC(=O)NC1CCS(=O)(=O)C1)C(=O)Nc1cccnc1 (some centres not stated) with Shiga toxin 2 (Escherichia coli O157:H7) (UniProt P09385+P09386); value = -52.8

The compound Cc1nc(CN2CCCC(N(C)CCc3cccs3)C2)no1 (configuration not stated) , tested on Shiga toxin 2 (Escherichia coli O157:H7) (UniProt P09385+P09386), showed Percent Effect of 25.8

Field Percent Effect (Shiga toxin 2 (Escherichia coli O157:H7) (UniProt P09385+P09386)), entry CCS(=O)(=O)N1CCO[C@H]2[C@H](OCC3CCCC3)CC[C@@H]21 : -8.34

====

Below, each entry is listed alongside its reported Percent Effect.
ASSAY_SYSTEM: Shiga toxin 2 (Escherichia coli O157:H7) (UniProt P09385+P09386)
METHOD_NOTES: E. coli 0.157:H7 Shiga Toxin SOP - stx2 screening assay
Assay type: functional
Design: scale not given: direction of the effect not stated beside the values
MEASUREMENT_SETUP: 30 µM
Just the number in %, nothing appended.

COMPOUND	REPORTED_VALUE
Cc1nn(C)c(C)c1CC(=O)N1CCCC(n2ccnc2)C1 (centres undefined)	12.9
Cc1nc(N2CCCC2)nc2c1CN(C(=O)N1CCOCC1)CC2	-3.98
CC(Cc1ccco1)NC(=O)Nc1ccc(N2CCOCC2)nc1 (centres undefined)	15
Cc1ccc(CNC2CCN(CCc3ccncc3)CC2)cc1C	-49.6
Cc1ncsc1C(=O)NC1CCN(Cc2cccnc2)CC1	-58.8
CNC(=O)C1CCN(C(=O)c2cccn2Cc2cccs2)CC1	11.1
COc1cccc(CN(C)C(=O)CSc2ccc3c(c2)OCCO3)c1	7.23
CNC(=O)[C@@H]1C[C@H]2CN(Cc3nccs3)C[C@H]2N1C	-17

Okay, next one:
Entry CSCC(C)(O)CNC(=O)c1cc(Br)ccc1Cl (centres undefined) , Percent Effect reported as -13.2

====

Below, each entry is listed with its recorded Percent Effect.
ASSAY_SYSTEM: Aspartate--tRNA(Asp/Asn) ligase (Mycobacterium tuberculosis (strain ATCC 25618 / H37Rv)) (UniProt P9WFW3); note: in the data most compounds retested in dose-response had high values
Sequence (P9WFW3 whole entry): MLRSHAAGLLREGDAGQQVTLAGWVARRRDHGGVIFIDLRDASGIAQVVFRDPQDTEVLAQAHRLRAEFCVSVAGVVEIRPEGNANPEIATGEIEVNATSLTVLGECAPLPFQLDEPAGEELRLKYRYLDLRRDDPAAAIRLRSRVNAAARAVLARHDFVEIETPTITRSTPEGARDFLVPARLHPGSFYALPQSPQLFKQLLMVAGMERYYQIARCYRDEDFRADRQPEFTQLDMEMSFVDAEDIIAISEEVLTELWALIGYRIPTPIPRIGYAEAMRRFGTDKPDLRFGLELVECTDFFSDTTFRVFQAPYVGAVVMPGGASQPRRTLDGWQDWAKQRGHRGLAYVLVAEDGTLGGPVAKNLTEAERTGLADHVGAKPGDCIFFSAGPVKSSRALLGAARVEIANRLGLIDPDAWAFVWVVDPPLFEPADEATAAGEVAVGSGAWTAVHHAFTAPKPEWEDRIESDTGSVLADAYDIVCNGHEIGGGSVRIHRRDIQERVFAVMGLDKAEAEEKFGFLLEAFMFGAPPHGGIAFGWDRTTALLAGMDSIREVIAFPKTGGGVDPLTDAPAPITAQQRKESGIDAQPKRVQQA
METHOD_NOTES: Assay for Asp RNA synthetase-1 from Mycobacterium tuberculosis
Assay type: functional
Parameters: scale not given: direction of the effect not stated beside the values
MEASUREMENT_SETUP: 30 µM
Record the value in %, omitting the unit from your answer.

Recorded Percent Effect, per entry:
COMPOUND	Percent Effect, %
N#Cc1cnn(-c2ccc(C(=O)Nc3ccccn3)cc2)c1N	-3
CCn1nnc2c1C(COC)CN(Cc1ccsc1)C2 (configuration not stated)	-1.23

Note to self: Percent Effect recorded for Cc1ccsc1C(=O)N1CC(C(=O)NCC2CC2)C2(CCOCC2)C1 (configuration not stated) was 8.9

Entry c1cnc(-c2nc(CN3CCC(c4ccn[nH]4)CC3)cs2)nc1 — recorded Percent Effect = -0.495

Lookup result for C=Cn1ncc(CN2C[C@@H]3CCCN3C[C@@H]2Cc2ccccc2)c1C ; measured Percent Effect: -6.18

In plain terms, Cc1nn(CC(=O)N2CCN(c3ccccc3F)CC2)c(C)c1Cl has a documented Percent Effect of 8.8

Percent Effect in this record for CN(Cc1ccc(F)cc1)C(=O)NCC1(N2CCOCC2)CCSC1 (configuration not stated) : -1.08

response.value for CS(=O)(=O)NCC(=O)NC1CCc2nccn2C1 (configuration not stated) (field: Percent Effect) = 2.91

Lab book: Percent Effect of COc1cccc(CNc2nc(O)cc(C3CC(=O)N(C)C3)n2)c1 (configuration not stated) noted as 4.42

COc1ccccc1OCC(=O)Nc1ncccc1Cl yielded Percent Effect of -0.641

The reported value for COc1ccc(-n2ccc(C(=O)NCCN3CCCCC3C)n2)cc1 (configuration not stated) in terms of Percent Effect is 4.6

The recorded Percent Effect for CC(=O)c1cn(CCC(=O)NCCC(=O)O)c2ccccc12 is -4.27

====

Tested on: Trypanosoma cruzi
METHOD_NOTES: Trypanosoma cruzi phosphomannomutase and mannose-1-phosphate guanylyltransferase assay
Type: functional
Design: scale not given: direction of the effect not stated beside the values
MEASUREMENT_SETUP: 10 µM
OBSERVED_PROPERTY: Percent Effect (%)
Give the quantity in %, number only.

Check out these entries, answers already filled in.
COMPOUND	DISPLAY_UNIT	Percent Effect
COc1cc(OC)c(C2SCC(=O)Nc3n[nH]cc32)cc1OC (centres undefined)	%	-0.682
NC(=O)N1CC2(CCNCC2)c2cc(Cl)ccc21	%	-3.38
COc1cc(CNC(C)Cn2cccn2)cc(OC)c1OC (centres undefined)	%	-7.3
O=C([C@H]1C[C@H]2OCC[C@H]2N(Cc2ccncc2)C1)N1CCCCO1	%	5.6
Cc1noc(C)c1CN1CCCC2(CCN(C(=O)CC3CC3)C2)C1 (centres undefined)	%	-0.375

So for Cc1nnc(N2CCCC3(CN(Cc4ccncc4)CCO3)C2)o1 (centres undefined) , the logged Percent Effect turned out to be -4.76

// field: Percent Effect; key: O=C(Cc1ccc(O)c(Cl)c1)N1CCN(CC2CC2)[C@@H]2CS(=O)(=O)C[C@@H]21 ; value = -1.46

Form field Percent Effect, entry O=C(CN1CCN(C(=O)Cc2ccc3c(c2)OCCO3)CC1)NC1CC1 : 2.06

Item: COCCN1CCN(Cc2ccncc2)[C@H]2CS(=O)(=O)C[C@H]21 | Percent Effect: 6.3

The measured Percent Effect associated with CN1CCCC(Cc2cncc(Br)c2)CC1 (centres undefined) reads 5.73

Sure, the documented Percent Effect for CC(C)CN1CCC2(C1)CN(c1ncccn1)C2 is -3.15

Form: compound = CC[C@H]1NCCC[C@]12CCC(=O)N2Cc1ccncc1 ; Percent Effect = 0

Percent Effect reading for Cc1cccc(CN2C(=O)C[C@H]3[C@@H]2CCN3CC2CC2)n1 : 0.563

# credit: ChEMBL document CHEMBL3988442
